# System Name: T1, human IL-2Rβ (human, UniProt P14784 27-240, limits assumed)
# T1 construct: Recombinant protein, coated (ELISA) or immobilised on CM5 (SPR); also called hu IL-2R; interleukin 2 receptor β-chain
# T1 sequence: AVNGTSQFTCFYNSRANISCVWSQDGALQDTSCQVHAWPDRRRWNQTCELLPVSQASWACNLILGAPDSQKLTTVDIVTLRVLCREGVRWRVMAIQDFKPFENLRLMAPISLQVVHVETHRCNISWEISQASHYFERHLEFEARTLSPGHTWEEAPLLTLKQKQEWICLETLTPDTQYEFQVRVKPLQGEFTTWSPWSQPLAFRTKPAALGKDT
# Method Summary: P.E. binding ELISA on coated protein
// values below are reported P.E. binding ELISA OD
Reported Endpoint: P.E. binding ELISA OD (OD450 nm)

>  <Binder>
FJ1427_P035MP03A09 (VHH, soluble VHH in periplasmic extract; also called clone nr) VHH: QVQLVESGGGLVQAGGSLRLACAASGRTFSTLTMGWFRQAPGKEREFVAGISPSGGYAWHADSVKGRFTIDRDNAKNTVYLQTRSLRPEDTAVYYCAADHPPYGAVASRSEYEYDDWGPGTRVTVSS

>  <Reported Endpoint>
P.E. binding ELISA OD

>  <Val>
0.208

$$$$
>  <Binder>
FJ1427_P035MP03G02 (VHH, soluble VHH in periplasmic extract; also called clone nr) VHH: EVQLVESGGGLVQPGGSLRLSCAISGGTLDSYGIGWVRQAPGKQREGVSCMSRSDDRTFYADSVKGRFTISKDNAKSTVYLQMTNLKPDDTAVYYCAAVDAYGCSLVQPTTYDFWGLGTQVTVSS

>  <Reported Endpoint>
P.E. binding ELISA OD

>  <Val>
0.684

$$$$
>  <Binder>
FJ1427_P035MP03F03 (VHH, soluble VHH in periplasmic extract; also called clone nr) VHH: QVQLVESGGTLVQTGGSLRLSCVVSGSHFISDVMGWYRQVPGKQRELVADMADGGSAKYGDSVKGRFTIVRDSVKNTVYLQMSSLNPEDTGVYYCKAGLWIKGRHSDYWGQGTQVTVTS

>  <Reported Endpoint>
P.E. binding ELISA OD

>  <Val>
0.107

$$$$
>  <Binder>
FJ1427_P035MP03G11 (VHH, soluble VHH in periplasmic extract; also called clone nr) VHH: EVQLVESGGGLVQAGGSLRLSCAASGDVFVRYTMAWFRQAPGKEREFVASVTDSGRTTDYVDSVKGRFTVSRDNAKNTVYLQMNNLKPEDTAVYYCAANTDYFQIRSLEFNTWGQGTQVTVSS

>  <Reported Endpoint>
P.E. binding ELISA OD

>  <Val>
0.38

$$$$
